Collected pIC50 for UniProt:P25021 across several studies; compounds listed below.
Sequence (P25021 whole entry): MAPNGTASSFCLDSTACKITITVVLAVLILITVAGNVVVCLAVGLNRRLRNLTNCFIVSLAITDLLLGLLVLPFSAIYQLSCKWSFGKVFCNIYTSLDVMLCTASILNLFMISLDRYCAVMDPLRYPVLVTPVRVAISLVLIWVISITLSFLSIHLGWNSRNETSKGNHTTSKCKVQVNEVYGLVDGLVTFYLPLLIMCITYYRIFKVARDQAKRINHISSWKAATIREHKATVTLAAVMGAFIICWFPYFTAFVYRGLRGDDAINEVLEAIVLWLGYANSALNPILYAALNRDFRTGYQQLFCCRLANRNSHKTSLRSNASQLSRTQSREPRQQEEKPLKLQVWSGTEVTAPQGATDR
pIC50: −log10 of the molar value.

Past entries and their recorded results:
{"ENTRY_SMILES": "COc1cc(NC(=O)c2ccc(-c3ccc(Cl)cc3)o2)cc(OC)c1", "pIC50": "< 5.00"}
{"ENTRY_SMILES": "Cc1nc2cccc(F)c2c(=O)n1-c1ccc(OC2CCN(C3CCC3)CC2)cc1", "pIC50": "< 5.00"}
{"ENTRY_SMILES": "Cc1nc2cccc(C(F)(F)F)c2c(=O)n1-c1ccc(OCCCN2CCCC2)cc1", "pIC50": "< 5.00"}
{"ENTRY_SMILES": "CCCNCc1ccc(CCn2ccc(OCc3ccc(F)cc3)cc2=O)nc1", "pIC50": "< 5.30"}
{"ENTRY_SMILES": "COc1ccc2c(c1)C(=O)O[C@]21CC[C@H](C(=O)N(C)CCN2CCCCC2)CC1", "pIC50": "< 5.00"}
{"ENTRY_SMILES": "CN[C@@H]1CCN(c2nc(N)nc3c2oc2ccc(Cl)cc23)C1", "pIC50": "< 4.52"}

Here COc1ccc(CN2CCCN(Cc3ccccc3)[C@@H](C)C2)cc1 was tested on UniProt:P25021, and its pIC50 came to 6.00

Measured pIC50 for this entry Cc1nc2cccc(C(F)(F)F)c2c(=O)n1-c1ccc(OC2CCN(C3CCC3)CC2)cc1 on UniProt:P25021: < 5.00

Readout pIC50 for CN(CCN1CCCCC1)C(=O)[C@H]1CC[C@@]2(CC1)OC(=O)c1ccccc12 , test system UniProt:P25021, was < 5.00
